target: K-Ras^G12C : hSOS1 interaction (Homo sapiens, UniProt Q07889); assay: Biochemical assay 1: K-Ras^G12C interaction assay with hSOS1 (HTRF); assay type: binding; conditions: read-out: Assay 1 (KRAS-SOS Interaction) activity expressed as IC50
pIC50: −log10 of the molar value.

compound	pIC50
COc1cc2nc(C)nc(NC(C)c3cc(Br)cc4c3OCC4)c2cc1OC (centres unmarked) [Example 225]	5.81
COc1cc2nc(C)nc(NC(C)c3cccc4sccc34)c2cc1OC (centres unmarked)	7.13
CCOc1cc2c(N[C@H](C)c3cccc(-c4cn[nH]c4)c3)nc(C)nc2cc1OC	6.31
COc1cc2nc(C)nc(N[C@H](C)c3cccc(Br)c3)c2cc1OC	6.76
COc1cc2nc(C)nc(N[C@H](C)c3cccc(-c4ccc5c(c4)CC(=O)N5)c3)c2cc1OC	6.38
COc1cc2nc(C)nc(NC(C)c3ccc(F)c4[nH]ncc34)c2cc1OC (centres unmarked)	5.77
COc1cc2nc(C)nc(NC(C)c3ccc(-c4ccccc4CNCC(F)(F)F)s3)c2cc1OC (centres unmarked)	5.50
CNCc1ccccc1-c1cccc([C@@H](C)Nc2nc(C)nc3cc(OC)c(OC)cc23)c1	6.78
